Examples of compounds with documented TGI follow.
Tested on: ACHN
Assay: Cytotoxicity against human ACHN cells
Type: functional
experimental readout: TGI (nM)

INSERT INTO measurements (compound, quantitative_result) VALUES
  ('C/C=C1\NC(=O)[C@H](Cc2ccccc2)NC(=O)[C@@H](C(C)C)NC(=O)[C@@H]([C@@H](C)CC)NC(=O)[C@H](NC(=O)[C@H](NC(=O)[C@H](CCCNCc2ccncc2)NC(=O)[C@H]2CCCN2C(=O)[C@H](NC(=O)[C@@H](NC(=O)[C@@H](NC(=O)[C@H](NC(=O)CCCC(C)C)C(C)C)[C@@H](C)O)C(C)C)C(C)C)[C@@H](C)CC)[C@@H](C)OC(=O)[C@H](C(C)C)NC1=O', 2320),
  ('C/C=C1\NC(=O)[C@H](Cc2ccccc2)NC(=O)[C@@H](C(C)C)NC(=O)[C@@H]([C@@H](C)CC)NC(=O)[C@H](NC(=O)[C@H](NC(=O)[C@H](CCCNC(=O)c2cc3ccc(N(CC)CC)cc3oc2=O)NC(=O)[C@H]2CCCN2C(=O)[C@H](NC(=O)[C@@H](NC(=O)[C@@H](NC(=O)[C@H](NC(=O)CCCC(C)C)C(C)C)[C@@H](C)O)C(C)C)C(C)C)[C@@H](C)CC)[C@@H](C)OC(=O)[C@H](C(C)C)NC1=O', 69800),
  ('C/C=C1\NC(=O)[C@H](Cc2ccccc2)NC(=O)[C@@H](C(C)C)NC(=O)[C@@H]([C@H](C)CC)NC(=O)[C@H](NC(=O)[C@H](NC(=O)[C@H](CCCN)NC(=O)[C@H]2CCCN2C(=O)[C@H](NC(=O)[C@@H](NC(=O)[C@@H](NC(=O)[C@H](NC(=O)CCCC(C)C)C(C)C)[C@@H](C)O)C(C)C)C(C)C)[C@H](C)CC)[C@H](C)OC(=O)[C@H](C(C)C)NC1=O [KAHALALIDE F]', 3240),
  ('C/C=C1\NC(=O)[C@H](Cc2ccccc2)NC(=O)[C@@H](C(C)C)NC(=O)[C@@H]([C@@H](C)CC)NC(=O)[C@H](NC(=O)[C@H](NC(=O)[C@H](CCCNCc2cccs2)NC(=O)[C@H]2CCCN2C(=O)[C@H](NC(=O)[C@@H](NC(=O)[C@@H](NC(=O)[C@H](NC(=O)CCCC(C)C)C(C)C)[C@@H](C)O)C(C)C)C(C)C)[C@@H](C)CC)[C@@H](C)OC(=O)[C@H](C(C)C)NC1=O', 2370),
  ('CC(=O)O[C@H]1C(=O)[C@@]2(C)[C@H]([C@H](OC(=O)c3ccccc3)[C@]3(O)C[C@H](OC(=O)[C@H](O)[C@@H](NC(=O)c4ccccc4)c4ccccc4)C(C)=C1C3(C)C)[C@]1(OC(C)=O)CO[C@@H]1C[C@@H]2O', 12600),
  ('C/C=C1\NC(=O)[C@H](Cc2ccccc2)NC(=O)[C@@H](C(C)C)NC(=O)[C@@H]([C@@H](C)CC)NC(=O)[C@H](NC(=O)[C@H](NC(=O)[C@H](CCCNCc2ccc(F)cc2)NC(=O)[C@H]2CCCN2C(=O)[C@H](NC(=O)[C@@H](NC(=O)[C@@H](NC(=O)[C@H](NC(=O)CCCC(C)C)C(C)C)[C@@H](C)O)C(C)C)C(C)C)[C@@H](C)CC)[C@@H](C)OC(=O)[C@H](C(C)C)NC1=O', 2060);

###

Tested on: Fusarium solani
Assay: Fungicidal activity against Fusarium solani at 30 uM after 72 hrs by microtiter assay
Assay type: functional, organism-based
Calls of active or inactive are those of the source. The calls are words filed in the database; no cut-off is given here.
experimental readout: Activity

INSERT INTO assay_data (test_smiles, experimental_readout, result) VALUES
  ('C/C=C1\NC(=O)[C@H](Cc2ccccc2)NC(=O)[C@@H](C(C)C)NC(=O)[C@@H]([C@@H](C)CC)NC(=O)[C@H](NC(=O)[C@H](NC(=O)[C@H](CCCNCc2ccc(F)cc2)NC(=O)[C@H]2CCCN2C(=O)[C@@H](NC(=O)[C@H](NC(=O)[C@H](NC(=O)[C@@H](NC(=O)CCCC(C)C)C(C)C)[C@H](C)O)C(C)C)C(C)C)[C@@H](C)CC)[C@@H](C)OC(=O)[C@H](C(C)C)NC1=O', 'Activity', 'Active'),
  ('C/C=C1\NC(=O)[C@H](Cc2ccccc2)NC(=O)[C@@H](C(C)C)NC(=O)[C@@H]([C@@H](C)CC)NC(=O)[C@H](NC(=O)[C@H](NC(=O)[C@H](CCCNCCCCCC)NC(=O)[C@H]2CCCN2C(=O)[C@@H](NC(=O)[C@H](NC(=O)[C@H](NC(=O)[C@@H](NC(=O)CCCC(C)C)C(C)C)[C@H](C)O)C(C)C)C(C)C)[C@@H](C)CC)[C@@H](C)OC(=O)[C@H](C(C)C)NC1=O', 'Activity', 'Active'),
  ('C/C=C1\NC(=O)[C@H](Cc2ccccc2)NC(=O)[C@@H](C(C)C)NC(=O)[C@@H]([C@@H](C)CC)NC(=O)[C@H](NC(=O)[C@H](NC(=O)[C@H](CCCN)NC(=O)[C@H]2CCCN2C(=O)[C@@H](NC(=O)[C@H](NC(=O)[C@H](NC(=O)[C@@H](NC(=O)CCCC(C)C)C(C)C)C(C)=O)C(C)C)C(C)C)[C@@H](C)CC)[C@@H](C)OC(=O)[C@H](C(C)C)NC1=O', 'Activity', 'Active');

###

Tested on: Mycobacterium intracellulare
Assay: Antimicrobial activity against Mycobacterium intracellular ATCC 23068
Format: functional, organism-based
experimental readout: MBC

INSERT INTO measurements (molecule, result) VALUES
  ('C/C=C1\NC(=O)[C@H](Cc2ccccc2)NC(=O)[C@@H](C(C)C)NC(=O)[C@@H]([C@@H](C)CC)NC(=O)[C@H](NC(=O)[C@H](NC(=O)[C@H](CCCNCc2ccc(F)cc2)NC(=O)[C@H]2CCCN2C(=O)[C@H](NC(=O)[C@@H](NC(=O)[C@@H](NC(=O)[C@H](NC(=O)CCCC(C)C)C(C)C)[C@@H](C)O)C(C)C)C(C)C)[C@@H](C)CC)[C@@H](C)OC(=O)[C@H](C(C)C)NC1=O', '> 20 µM'),
  ('C/C=C1\NC(=O)[C@H](Cc2ccccc2)NC(=O)[C@@H](C(C)C)NC(=O)[C@@H]([C@@H](C)CC)NC(=O)[C@H](NC(=O)[C@H](NC(=O)[C@H](CCCN(CCCCCC)CCCCCC)NC(=O)[C@H]2CCCN2C(=O)[C@H](NC(=O)[C@@H](NC(=O)[C@@H](NC(=O)[C@H](NC(=O)CCCC(C)C)C(C)C)[C@@H](C)O)C(C)C)C(C)C)[C@@H](C)CC)[C@@H](C)OC(=O)[C@H](C(C)C)NC1=O', '> 20 µM'),
  ('C/C=C1\NC(=O)[C@H](Cc2ccccc2)NC(=O)[C@@H](C(C)C)NC(=O)[C@@H]([C@H](C)CC)NC(=O)[C@H](NC(=O)[C@H](NC(=O)[C@H](CCCN)NC(=O)[C@H]2CCCN2C(=O)[C@H](NC(=O)[C@@H](NC(=O)[C@@H](NC(=O)[C@H](NC(=O)CCCC(C)C)C(C)C)[C@@H](C)O)C(C)C)C(C)C)[C@H](C)CC)[C@H](C)OC(=O)[C@H](C(C)C)NC1=O [KAHALALIDE F]', '> 20 µM');

###

Tested on: RPMI-8226
Experiment: Cytotoxicity against human RPMI8226 cells
Format: functional
experimental readout: GI50 (µM)

INSERT INTO measurements (compound, system_under_test, experimental_readout, unit_annotation, quantitative_result) VALUES
  ('C/C=C1\NC(=O)[C@H](Cc2ccccc2)NC(=O)[C@@H](C(C)C)NC(=O)[C@@H]([C@H](C)CC)NC(=O)[C@H](NC(=O)[C@H](NC(=O)[C@H](CCCN)NC(=O)[C@H]2CCCN2C(=O)[C@H](NC(=O)[C@@H](NC(=O)[C@@H](NC(=O)[C@H](NC(=O)CCCC(C)C)C(C)C)[C@@H](C)O)C(C)C)C(C)C)[C@H](C)CC)[C@H](C)OC(=O)[C@H](C(C)C)NC1=O [KAHALALIDE F]', 'RPMI-8226', 'GI50', 'µM', 1.74);

###

Test system: HCC 2998
Assay: Cytotoxicity against human HCC2998 cells
Type: functional
experimental readout: GI50 (nM)

INSERT INTO measurements (compound, experimental_readout, quantitative_result) VALUES
  ('C/C=C1\NC(=O)[C@H](Cc2ccccc2)NC(=O)[C@@H](C(C)C)NC(=O)[C@@H]([C@H](C)CC)NC(=O)[C@H](NC(=O)[C@H](NC(=O)[C@H](CCCN)NC(=O)[C@H]2CCCN2C(=O)[C@H](NC(=O)[C@@H](NC(=O)[C@@H](NC(=O)[C@H](NC(=O)CCCC(C)C)C(C)C)[C@@H](C)O)C(C)C)C(C)C)[C@H](C)CC)[C@H](C)OC(=O)[C@H](C(C)C)NC1=O [KAHALALIDE F]', 'GI50', 288),
  ('C/C=C1\NC(=O)[C@H](Cc2ccccc2)NC(=O)[C@@H](C(C)C)NC(=O)[C@@H]([C@@H](C)CC)NC(=O)[C@H](NC(=O)[C@H](NC(=O)[C@H](CCCNC(=O)c2cc3ccc(N(CC)CC)cc3oc2=O)NC(=O)[C@H]2CCCN2C(=O)[C@H](NC(=O)[C@@H](NC(=O)[C@@H](NC(=O)[C@H](NC(=O)CCCC(C)C)C(C)C)[C@@H](C)O)C(C)C)C(C)C)[C@@H](C)CC)[C@@H](C)OC(=O)[C@H](C(C)C)NC1=O', 'GI50', 2270),
  ('CC(=O)O[C@H]1C(=O)[C@@]2(C)[C@H]([C@H](OC(=O)c3ccccc3)[C@]3(O)C[C@H](OC(=O)[C@H](O)[C@@H](NC(=O)c4ccccc4)c4ccccc4)C(C)=C1C3(C)C)[C@]1(OC(C)=O)CO[C@@H]1C[C@@H]2O', 'GI50', 3);
